- assaySystem: T1, Recombinant Streptavidin, unconjugated (UniProt P22629 25-183)
- T1 construct: Streptavidin, commercial recombinant protein; Used in the fluorescence polarisation assays; source: bought: recombinant, unconjugated format (Thermo Fisher Scientific, BioRad or Perkin Elmer, 'respectively')
- T1 sequence (P22629 25-183): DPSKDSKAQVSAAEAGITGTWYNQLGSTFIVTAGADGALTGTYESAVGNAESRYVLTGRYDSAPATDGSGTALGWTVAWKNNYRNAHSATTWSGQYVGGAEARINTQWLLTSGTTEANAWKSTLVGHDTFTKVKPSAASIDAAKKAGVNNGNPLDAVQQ
- assayInfo: fluorescence polarisation; 20 nM 5'FAM-labeled peptide with rising concentrations of Streptavidin/StrepTactin, triplicates; ES2 buffer (100 mM potassium phosphate pH 7.4, 100 μg/ml bovine γ globulin, 0.02% NaN3); at least 2 h at RT or o/n at 4 °C
- testContext: both partners purified
Where no end group is shown, it is not given here.
observedProperty: Kd (µM)

binder	observedProperty	experimentalValue
{FAM}-WSHPQFEK (Strep-tag II; source: synthetic peptide) [5'FAM-labeled Strep-tag II peptide]	Kd	13.3
{FAM}-AWRHPQFGG (Strep-tag I; source: synthetic peptide (GenScript Inc.)) [5'FAM-labeled Strep-tag I peptide]	Kd	2.75
